System: HCT116 colon cancer cells
assay protocol: Anti-proliferative MTT assay
Format: cell-based
applied conditions: Homo sapiens, HCT-116, 24 h, read-out: % Growth inhibition ± SEM HCT116
property measured: inhibition at 10 µM
Remember to quote the unit after the number.

Reported inhibition at 10 µM, molecule COc1ccc(C2CC(c3ccc(Cl)cc3Cl)=NN2c2nc(-c3ccccc3)cs2)cc1 (stereo not drawn) [Compound 7a] : ____
0.5%

Reported inhibition at 10 µM, molecule COc1ccc(C2CC(c3ccc(Cl)cc3Cl)=NN2c2nc(C)c(C(=O)Nc3ccccc3)s2)cc1 (stereo not drawn) [Compound 10c] : ____
7.9%

Reported inhibition at 10 µM, molecule COc1ccc(C2CC(c3ccc(Cl)cc3Cl)=NN2c2nc(C)c(N=Nc3ccc(Cl)cc3)s2)cc1OC (stereo not drawn) [Compound 13f] : ____
0.2%

----------
measurement target: recombinant human VEGFR-2/KDR (Homo sapiens, UniProt P35968)
Construct: purchased
Sequence (P35968 20-1356): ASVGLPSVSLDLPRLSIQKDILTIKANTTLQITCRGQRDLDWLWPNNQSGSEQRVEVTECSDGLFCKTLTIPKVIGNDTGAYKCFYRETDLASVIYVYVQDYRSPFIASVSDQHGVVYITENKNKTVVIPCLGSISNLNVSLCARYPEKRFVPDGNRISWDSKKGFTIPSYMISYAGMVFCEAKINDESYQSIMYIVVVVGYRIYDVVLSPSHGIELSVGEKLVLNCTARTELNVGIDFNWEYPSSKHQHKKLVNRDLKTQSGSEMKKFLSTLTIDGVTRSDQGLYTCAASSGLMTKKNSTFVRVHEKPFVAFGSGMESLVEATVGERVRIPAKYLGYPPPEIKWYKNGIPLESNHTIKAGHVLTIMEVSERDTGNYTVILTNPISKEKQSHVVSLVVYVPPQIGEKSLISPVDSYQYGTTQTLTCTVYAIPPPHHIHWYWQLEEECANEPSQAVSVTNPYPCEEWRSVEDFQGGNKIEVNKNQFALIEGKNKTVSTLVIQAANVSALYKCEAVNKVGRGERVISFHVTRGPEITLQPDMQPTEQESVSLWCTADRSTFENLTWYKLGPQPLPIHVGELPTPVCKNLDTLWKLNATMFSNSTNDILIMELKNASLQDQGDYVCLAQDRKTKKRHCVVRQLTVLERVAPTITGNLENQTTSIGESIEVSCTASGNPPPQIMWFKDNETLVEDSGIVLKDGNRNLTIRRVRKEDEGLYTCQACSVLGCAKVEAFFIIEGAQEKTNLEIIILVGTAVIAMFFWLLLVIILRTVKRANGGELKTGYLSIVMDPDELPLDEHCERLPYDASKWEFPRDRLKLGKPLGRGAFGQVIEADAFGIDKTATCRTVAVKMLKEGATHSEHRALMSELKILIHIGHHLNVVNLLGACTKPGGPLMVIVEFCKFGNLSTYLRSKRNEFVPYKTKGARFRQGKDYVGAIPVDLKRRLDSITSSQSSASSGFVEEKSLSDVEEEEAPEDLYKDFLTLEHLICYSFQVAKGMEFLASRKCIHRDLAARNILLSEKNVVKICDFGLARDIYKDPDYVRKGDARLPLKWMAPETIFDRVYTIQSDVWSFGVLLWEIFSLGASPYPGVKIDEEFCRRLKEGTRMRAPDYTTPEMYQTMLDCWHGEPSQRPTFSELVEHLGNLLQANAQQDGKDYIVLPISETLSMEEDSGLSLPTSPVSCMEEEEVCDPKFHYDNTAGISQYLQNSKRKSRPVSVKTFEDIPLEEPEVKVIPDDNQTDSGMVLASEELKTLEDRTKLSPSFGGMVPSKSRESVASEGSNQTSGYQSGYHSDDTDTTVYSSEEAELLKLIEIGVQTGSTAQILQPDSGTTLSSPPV
assay protocol: VEGFR-2 kinase assay (VEGFR-2/KDR ELISA kit)
Type: biochemical
applied conditions: read-out: IC50 (nM) ± SEM VEGFR-2
Procedure: The EGFR kinase assay was carried out in 96-well plates coated with PGT (poly l-glutamic acid l-tyrosine, 4:1, Sigma Aldrich, St. Louis, MO) as previously described. IC50 values were calculated using GraphPad Prism 5. Each experiment was carried out at least three times. The VEGFR-2 kinase assay was carried out in 96-well streptavidin coated plate using recombinant human VEGFR-2/KDR ELISA kit according to manufacturer’s instructions.
property measured: IC50

Reported IC50, compound COc1ccc(C2CC(c3ccc(Cl)cc3Cl)=NN2c2nc(C)c(N=Nc3ccc(Cl)cc3)s2)cc1OC (stereo not drawn) [Compound 13f] : ____
113 nM

Reported IC50, compound COc1ccc(C2CC(c3ccc(Cl)cc3Cl)=NN2c2nc(C)c(C(=O)Nc3ccccc3)s2)cc1 (stereo not drawn) [Compound 10c] : ____
102 nM

Reported IC50, compound COc1ccc(C2CC(c3ccc(Cl)cc3Cl)=NN2c2nc(C)c(N=Nc3ccc(C)cc3)s2)cc1 (stereo not drawn) [Compound 13b] : ____
214 nM

Reported IC50, compound CCOC(=O)c1sc(N2N=C(c3ccc(Cl)cc3Cl)CC2c2ccc(OC)cc2)nc1C (stereo not drawn) [Compound 10b] : ____
78.4 nM

Reported IC50, compound COc1ccc(C2CC(c3ccc(Cl)cc3Cl)=NN2c2nc(C)c(C(=O)Nc3ccccc3)s2)cc1OC (stereo not drawn) [Compound 10d] : ____
43 nM

Reported IC50, compound COc1ccc(C2CC(c3ccc(Cl)cc3Cl)=NN2c2nc(-c3ccccc3)cs2)cc1 (stereo not drawn) [Compound 7a] : ____
125 nM

----------
measurement target: UniProt P00533
Sequence (P00533 25-1210): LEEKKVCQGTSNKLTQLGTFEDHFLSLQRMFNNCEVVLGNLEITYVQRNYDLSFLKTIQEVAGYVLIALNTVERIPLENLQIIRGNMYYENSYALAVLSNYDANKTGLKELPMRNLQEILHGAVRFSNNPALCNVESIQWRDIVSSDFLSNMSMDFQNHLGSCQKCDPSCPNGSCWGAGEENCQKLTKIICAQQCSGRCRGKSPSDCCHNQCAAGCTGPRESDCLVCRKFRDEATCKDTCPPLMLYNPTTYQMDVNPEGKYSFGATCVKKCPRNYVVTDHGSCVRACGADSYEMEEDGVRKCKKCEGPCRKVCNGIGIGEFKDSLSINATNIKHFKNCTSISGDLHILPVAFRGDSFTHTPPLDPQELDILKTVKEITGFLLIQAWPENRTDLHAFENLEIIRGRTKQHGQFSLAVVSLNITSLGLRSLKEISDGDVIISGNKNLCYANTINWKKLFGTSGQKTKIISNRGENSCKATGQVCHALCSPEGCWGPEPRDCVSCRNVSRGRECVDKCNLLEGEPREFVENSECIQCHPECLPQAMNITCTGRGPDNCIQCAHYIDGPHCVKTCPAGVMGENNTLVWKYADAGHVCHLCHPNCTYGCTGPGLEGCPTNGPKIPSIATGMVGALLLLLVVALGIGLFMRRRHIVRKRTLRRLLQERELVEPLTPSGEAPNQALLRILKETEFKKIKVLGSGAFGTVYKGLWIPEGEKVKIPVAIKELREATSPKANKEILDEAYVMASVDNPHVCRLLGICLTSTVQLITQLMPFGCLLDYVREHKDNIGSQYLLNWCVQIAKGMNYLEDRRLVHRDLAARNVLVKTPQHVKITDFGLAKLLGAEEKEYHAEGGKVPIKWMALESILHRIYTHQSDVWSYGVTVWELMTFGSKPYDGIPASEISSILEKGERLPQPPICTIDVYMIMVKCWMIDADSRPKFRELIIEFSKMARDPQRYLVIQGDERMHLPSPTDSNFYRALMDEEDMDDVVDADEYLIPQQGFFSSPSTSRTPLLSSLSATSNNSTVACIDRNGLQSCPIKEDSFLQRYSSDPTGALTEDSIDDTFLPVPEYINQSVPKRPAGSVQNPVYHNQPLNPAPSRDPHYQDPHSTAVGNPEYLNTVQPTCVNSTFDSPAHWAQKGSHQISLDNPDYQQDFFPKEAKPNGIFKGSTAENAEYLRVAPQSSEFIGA
assay protocol: EGFR kinase assay (PGT-coated 96-well plates)
Assay type: biochemical
applied conditions: read-out: IC50 (nM) ± SEM EGFR
Field: IC50. Provide a value for each of the compounds that follow.
Answer format: numeric, nM implied, no suffix.

Reported IC50, compound COc1ccc(C2CC(c3ccc(Cl)cc3Cl)=NN2c2nc(C)c(C(C)=O)s2)cc1 (centres unmarked) [Compound 10a] : ____
274

Reported IC50, compound COc1ccc(C2CC(c3ccc(Cl)cc3Cl)=NN2c2nc(-c3ccccc3)cs2)cc1 (centres unmarked) : ____
145

Reported IC50, compound COc1ccc(C2CC(c3ccc(Cl)cc3Cl)=NN2c2nc(-c3ccccc3)cs2)cc1OC (centres unmarked) : ____
511

Reported IC50, compound COc1ccc(C2CC(c3ccc(Cl)cc3Cl)=NN2c2nc(C)c(C(=O)Nc3ccccc3)s2)cc1 (centres unmarked) [Compound 10c] : ____
131

Reported IC50, compound COc1ccc(C2CC(c3ccc(Cl)cc3Cl)=NN2c2nc(C)c(N=Nc3ccc(C)cc3)s2)cc1 (centres unmarked) [Compound 13b] : ____
179

Reported IC50, compound COc1ccc(C2CC(c3ccc(Cl)cc3Cl)=NN2c2nc(-c3ccc(Cl)cc3)cs2)cc1 (centres unmarked) : ____
114

Reported IC50, compound CCOC(=O)c1sc(N2N=C(c3ccc(Cl)cc3Cl)CC2c2ccc(OC)cc2)nc1C (centres unmarked) [Compound 10b] : ____
40.7

Reported IC50, compound COc1ccc(C2CC(c3ccc(Cl)cc3Cl)=NN2c2nc(C)c(N=Nc3ccc(Cl)cc3)s2)cc1OC (centres unmarked) [Compound 13f] : ____
107

----------
For CDK5 (Homo sapiens), measured pIC50 is reported for the entries below.
By convention, pIC50 is the negative base-10 log of a molar concentration.

Reported pIC50, molecule COc1ccc(C2CC(c3ccc(Cl)cc3Cl)=NN2c2nc(C)c(C(=O)Nc3ccccc3)s2)cc1OC (centres unmarked) [Compound 10d] : ____
6.00

Reported pIC50, molecule CCOC(=O)c1sc(N2N=C(c3ccc(Cl)cc3Cl)CC2c2ccc(OC)cc2)nc1C (centres unmarked) [Compound 10b] : ____
5.94

----------
Tested on: HepG2 liver cancer cells
assay protocol: Anti-proliferative MTT assay
Format: cell-based
applied conditions: Homo sapiens, 24 h, read-out: % Growth inhibition ± SEM HepG2
Method: To evaluate the anti-proliferative activity of the synthesised thiazolyl-pyrazoline derivatives (7a–7d, 10a–10d, and 13a–13f), a preliminary in vitro one dose (10 µM) anticancer assay was performed. […] The compounds were added at a single concentration (10 µM) and the cultures were incubated for 24 h, then the per cent growth inhibition (%GI) was calculated. […] Cytotoxicity was measured using the MTT assay. […]
Cut-off 10% on inhibition at 10 µM, inclusive. At or above means 1; below means 0.

Quick check, inhibition at 10 µM >= 10%? COc1ccc(C2CC(c3ccc(Cl)cc3Cl)=NN2c2nc(-c3ccc(Cl)cc3)cs2)cc1OC (centres unmarked)
0

Quick check, inhibition at 10 µM >= 10%? COc1ccc(C2CC(c3ccc(Cl)cc3Cl)=NN2c2nc(C)c(N=Nc3ccc(Cl)cc3)s2)cc1OC (centres unmarked) [Compound 13f]
0

Quick check, inhibition at 10 µM >= 10%? COc1ccc(C2CC(c3ccc(Cl)cc3Cl)=NN2c2nc(C)c(C(C)=O)s2)cc1 (centres unmarked) [Compound 10a]
1

Quick check, inhibition at 10 µM >= 10%? COc1ccc(C2CC(c3ccc(Cl)cc3Cl)=NN2c2nc(C)c(N=Nc3ccccc3)s2)cc1OC (centres unmarked) [Compound 13d]
1

Quick check, inhibition at 10 µM >= 10%? COc1ccc(C2CC(c3ccc(Cl)cc3Cl)=NN2c2nc(C)c(C(=O)Nc3ccccc3)s2)cc1OC (centres unmarked) [Compound 10d]
1

Quick check, inhibition at 10 µM >= 10%? COc1ccc(C2CC(c3ccc(Cl)cc3Cl)=NN2c2nc(-c3ccccc3)cs2)cc1OC (centres unmarked)
1

Quick check, inhibition at 10 µM >= 10%? CCOC(=O)c1sc(N2N=C(c3ccc(Cl)cc3Cl)CC2c2ccc(OC)cc2)nc1C (centres unmarked) [Compound 10b]
1

Quick check, inhibition at 10 µM >= 10%? COc1ccc(C2CC(c3ccc(Cl)cc3Cl)=NN2c2nc(C)c(N=Nc3ccc(Cl)cc3)s2)cc1 (centres unmarked) [Compound 13c]
1

Quick check, inhibition at 10 µM >= 10%? COc1ccc(C2CC(c3ccc(Cl)cc3Cl)=NN2c2nc(-c3ccccc3)cs2)cc1 (centres unmarked)
0

Quick check, inhibition at 10 µM >= 10%? COc1ccc(C2CC(c3ccc(Cl)cc3Cl)=NN2c2nc(C)c(N=Nc3ccc(C)cc3)s2)cc1OC (centres unmarked) [Compound 13e]
0

Quick check, inhibition at 10 µM >= 10%? COc1ccc(C2CC(c3ccc(Cl)cc3Cl)=NN2c2nc(-c3ccc(Cl)cc3)cs2)cc1 (centres unmarked)
1

Quick check, inhibition at 10 µM >= 10%? COc1ccc(C2CC(c3ccc(Cl)cc3Cl)=NN2c2nc(C)c(N=Nc3ccc(C)cc3)s2)cc1 (centres unmarked) [Compound 13b]
0

Quick check, inhibition at 10 µM >= 10%? COc1ccc(C2CC(c3ccc(Cl)cc3Cl)=NN2c2nc(C)c(N=Nc3ccccc3)s2)cc1 (centres unmarked) [Compound 13a]
1

Quick check, inhibition at 10 µM >= 10%? COc1ccc(C2CC(c3ccc(Cl)cc3Cl)=NN2c2nc(C)c(C(=O)Nc3ccccc3)s2)cc1 (centres unmarked) [Compound 10c]
1

----------
System: HCT116 colon cancer cells
assay protocol: Anti-proliferative MTT assay
Assay type: cell-based
applied conditions: Homo sapiens, HCT-116, 24 h, read-out: % Growth inhibition ± SEM HCT116
property measured: inhibition at 10 µM
Remember to quote the unit after the number.

Quick check: inhibition at 10 µM on HCT116 colon cancer cells, item COc1ccc(C2CC(c3ccc(Cl)cc3Cl)=NN2c2nc(-c3ccc(Cl)cc3)cs2)cc1 (stereo not shown) ?
18.8%

Quick check: inhibition at 10 µM on HCT116 colon cancer cells, item COc1ccc(C2CC(c3ccc(Cl)cc3Cl)=NN2c2nc(C)c(N=Nc3ccccc3)s2)cc1 (stereo not shown) [Compound 13a] ?
19.5%

Quick check: inhibition at 10 µM on HCT116 colon cancer cells, item COc1ccc(C2CC(c3ccc(Cl)cc3Cl)=NN2c2nc(-c3ccc(Cl)cc3)cs2)cc1OC (stereo not shown) ?
0.7%

Quick check: inhibition at 10 µM on HCT116 colon cancer cells, item COc1ccc(C2CC(c3ccc(Cl)cc3Cl)=NN2c2nc(C)c(N=Nc3ccc(C)cc3)s2)cc1 (stereo not shown) [Compound 13b] ?
0.8%

Quick check: inhibition at 10 µM on HCT116 colon cancer cells, item COc1ccc(C2CC(c3ccc(Cl)cc3Cl)=NN2c2nc(C)c(N=Nc3ccccc3)s2)cc1OC (stereo not shown) [Compound 13d] ?
10.1%

Quick check: inhibition at 10 µM on HCT116 colon cancer cells, item COc1ccc(C2CC(c3ccc(Cl)cc3Cl)=NN2c2nc(C)c(N=Nc3ccc(C)cc3)s2)cc1OC (stereo not shown) [Compound 13e] ?
9.9%

Quick check: inhibition at 10 µM on HCT116 colon cancer cells, item COc1ccc(C2CC(c3ccc(Cl)cc3Cl)=NN2c2nc(C)c(N=Nc3ccc(Cl)cc3)s2)cc1 (stereo not shown) [Compound 13c] ?
8.7%
